Reference source: the supplement of paper PMC9694430

test system: LOC_OS03G27990-cb004; assay: thermal shift delta Tm vs DMSO control; higher = stronger stabilization (binding); details: 12.5 µM; protein concentration 2 µM;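 further: purified Escherichia coli-expressed rice kinase domain construct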

{"compound": "CNC(=O)c1cc(Oc2ccc(NC(=O)Nc3ccc(Cl)c(C(F)(F)F)c3)c(F)c2)ccn1 [Regorafenib (BAY 73-4506)]", "thermal shift delta Tm, °C": 0.17}
{"compound": "COc1ccc(-c2cc3nccn3c(Nc3ncccc3C(N)=O)n2)cc1OC", "thermal shift delta Tm, °C": 0.56}
{"compound": "Cc1cc(Nc2cc(CN3CCOCC3)c3nc(C)c(Cc4ccc(Cl)cc4F)n3n2)n[nH]1", "thermal shift delta Tm, °C": 0.01}
{"compound": "C[C@@H]1COCCN1c1cc(C2([S@](C)(=N)=O)CC2)nc(-c2cc[nH]c3nccc2-3)n1", "thermal shift delta Tm, °C": 0.13}
{"compound": "CCOc1cc(N2CCC(O)CC2)ccc1Nc1ncc2c(n1)N(C)c1ccccc1C(=O)N2C", "thermal shift delta Tm, °C": -0.12}
{"compound": "Cc1cnc(Nc2ccc(OCCN3CCCC3)cc2)nc1Nc1cccc(S(=O)(=O)NC(C)(C)C)c1", "thermal shift delta Tm, °C": 1.33}
{"compound": "Cn1cc(C2=C(c3ccc(Cl)cc3Cl)C(=O)NC2=O)c2ccccc21", "thermal shift delta Tm, °C": 0.26}
{"compound": "C=CC(=O)N1CCN(CCCn2c(=O)c(-c3c(Cl)c(OC)cc(OC)c3Cl)cc3cnc(NC)nc32)CC1", "thermal shift delta Tm, °C": 0.48}
{"compound": "CN1CCC(Nc2nc(Nc3ccc(Oc4ccccc4)cc3)c3c(=O)[nH]cc(Br)c3n2)CC1", "thermal shift delta Tm, °C": 1.75}
{"compound": "O=C(O)c1cc(O)c2c(c1)[C@@H]([C@H]1c3cc(C(=O)O)cc(O)c3C(=O)c3c(O[C@@H]4O[C@H](CO)[C@@H](O)[C@H](O)[C@H]4O)cccc31)c1cccc(O[C@@H]3O[C@H](CO)[C@@H](O)[C@H](O)[C@H]3O)c1C2=O [Sennoside B]", "thermal shift delta Tm, °C": 0.89}
{"compound": "O=c1ccc2ccc(O)c(O)c2o1 [Daphnetin]", "thermal shift delta Tm, °C": 0.69}
{"compound": "COc1cc2c(c(OC)c1OC)-c1c(cc3c(c1OC)OCO3)CC(C)C(C)C2 (configuration not stated) [Schisandrin B (Sch B)]", "thermal shift delta Tm, °C": 0.05}
{"compound": "O=c1c(O)c(-c2ccc(O)c(O)c2)oc2cc(O)cc(O)c12 [Quercetin]", "thermal shift delta Tm, °C": 2.91}
{"compound": "O=C1NC(=O)[C@@H](c2cn3c4c(cccc24)CCC3)[C@@H]1c1c[nH]c2ccccc12 [Tivantinib (ARQ 197)]", "thermal shift delta Tm, °C": 0.43}
{"compound": "O=c1cc(N2CCOCC2)oc2c1ccc1ccccc12", "thermal shift delta Tm, °C": 0.27}
{"compound": "C[C@H](Nc1ncnc2[nH]cnc12)c1cc2ccc(F)cc2nc1-c1ccccn1", "thermal shift delta Tm, °C": 0.16}
{"compound": "CCCCOc1c(C(=O)c2c(F)cc(C)cc2F)c[nH]c2nncc1-2", "thermal shift delta Tm, °C": 0.03}
